- ASSAY_PROTOCOL: Cytotoxicity against CEM/0 cells
- Format: cell-based, CCRF-CEM
- PARTICULARS: human
READOUT_TYPE: CC50 (µM)

COMPOUND	DISPLAY_UNIT	MEAS_VALUE
C[C@@H](NP(=O)(OC[C@@H]1CC[C@H](n2ccc(=O)[nH]c2=O)O1)Oc1cccc2ccccc12)C(=O)OCc1ccccc1 (some centres undefined)	µM	96.9
C[C@@H](NP(=O)(OC[C@@H]1C=C[C@H](n2ccc(=O)[nH]c2=O)O1)Oc1cccc2ccccc12)C(=O)OCc1ccccc1 (some centres undefined)	µM	100
CCOC(=O)[C@@H](C)NP(=O)(OC[C@@H]1C=C[C@H](n2ccc(=O)[nH]c2=O)O1)Oc1ccccc1 (some centres undefined)	µM	212
COC(=O)[C@@H](C)NP(=O)(OC[C@@H]1CC[C@H](n2ccc(=O)[nH]c2=O)O1)Oc1ccccc1 (some centres undefined)	µM	121
